Molecular target: Human Dopamine D3 receptor (Homo sapiens, UniProt P35462)
Construct: expressed in transfected cells; host or cells: CHO cells
Sequence (P35462 whole entry): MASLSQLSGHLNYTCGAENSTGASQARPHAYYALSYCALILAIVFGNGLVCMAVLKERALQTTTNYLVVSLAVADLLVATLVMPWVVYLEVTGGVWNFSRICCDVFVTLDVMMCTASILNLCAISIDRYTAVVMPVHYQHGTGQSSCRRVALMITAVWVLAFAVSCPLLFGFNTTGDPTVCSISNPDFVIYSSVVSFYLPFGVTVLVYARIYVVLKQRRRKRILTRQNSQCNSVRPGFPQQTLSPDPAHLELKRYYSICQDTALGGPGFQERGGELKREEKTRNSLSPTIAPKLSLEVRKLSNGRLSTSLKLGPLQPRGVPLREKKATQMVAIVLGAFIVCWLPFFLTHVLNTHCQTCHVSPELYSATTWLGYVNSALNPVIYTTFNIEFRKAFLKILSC
Assay: Binding experiment for dopamine D3 receptor ([125I]Iodosulpride)
Conditions: transfected CHO cell membranes
Description: The interaction of the compounds of Formula (I) with dopamine-receptors, h5HT-transporter and h5HT1A receptor was assessed in in vitro radioligand binding experiments. […] When equilibrium of binding is reached, the receptor bound radioactivity is separated from the non-bound radioactivity, and the receptor- or transporter-bound activity is counted. The interaction of the test compounds with the receptor is assessed in competition binding experiments. […]
Provide the recorded pIC50 D3 for the entries that follow.

Here's what some known entries look like.
compound="COc1cc2c(cc1OC)C1=NOC(CN3CCC(c4c[nH]c5cc(F)ccc45)CC3)C1CO2 (racemic)" outcome_measure="pIC50 D3" measured_result=6.7
compound="COc1cc2c(cc1OC)C1=NOC(CN3CCC(c4c[nH]c5ccc(N)cc45)CC3)C1CO2 (racemic)" outcome_measure="pIC50 D3" measured_result=<6
compound="COc1cc2c(cc1OC)C1=NOC(CN3CC=C(c4c[nH]c5cccc(F)c45)CC3)C1CO2 (racemic) [Compound 9]" outcome_measure="pIC50 D3" measured_result=6.6
compound="COc1cc2c(cc1OC)C1=NOC(CN3CC=C(c4c[nH]c5ccc(F)cc45)CC3)C1CO2 (single isomer, unassigned) [Compound 12]" outcome_measure="pIC50 D3" measured_result=7.3

Field: pIC50 D3. Fill in for each record below.
1. COc1cc2c(cc1OC)C1=NOC(CN3CCC(c4c[nH]c5ccc(Cl)cc45)CC3)C1CO2 (racemic)
2. COc1cc2c(cc1OC)C1=NOC(CN3CC=C(c4c[nH]c5cc(F)ccc45)CC3)C1CO2 (racemic)

1. 6.6
2. 6.4

---

molecular target: Human 5HT1A receptor (Homo sapiens); construct: expressed in transfected cells; host or cells: L929 cells (stably transfected); assay: Binding experiment for 5-HT1A receptor ([3H]8OHDPAT); conditions: transfected L929 cell membranes, [3H]8OHDPAT
Sequence (P08908 whole entry): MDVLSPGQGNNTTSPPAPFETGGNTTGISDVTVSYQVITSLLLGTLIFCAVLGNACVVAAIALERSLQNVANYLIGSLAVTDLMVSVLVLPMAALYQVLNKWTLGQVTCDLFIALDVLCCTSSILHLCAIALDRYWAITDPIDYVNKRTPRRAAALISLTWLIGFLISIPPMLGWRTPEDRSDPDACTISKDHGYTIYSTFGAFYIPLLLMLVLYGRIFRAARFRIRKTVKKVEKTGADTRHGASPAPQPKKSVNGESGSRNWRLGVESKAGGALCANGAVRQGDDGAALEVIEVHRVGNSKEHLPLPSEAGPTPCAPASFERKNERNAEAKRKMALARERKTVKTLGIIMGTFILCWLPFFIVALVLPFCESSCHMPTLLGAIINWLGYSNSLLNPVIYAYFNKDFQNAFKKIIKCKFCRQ
outcome.measure: pIC50 5-HT1A
Numbers only.

Known pIC50 5-HT1A results, listed for orientation:
molecule="Fc1ccc2[nH]cc(C3=CCN(CC4ON=C5c6ccc(N7CCOCC7)cc6OCC54)CC3)c2c1 (racemic)" measured_result=7.8
molecule="COc1cc2c(cc1OC)C1=NOC(CN3CC=C(c4c[nH]c5cccc(F)c45)CC3)C1CO2 (single isomer, unassigned) [Compound 16]" measured_result=7.1

// below: pIC50 5-HT1A requested for another molecule
Quick one: pIC50 5-HT1A for COc1cc2c(cc1OC)C1=NOC(CN3CC=C(c4c[nH]c5ccccc45)CC3)C1CO2 (single isomer, unassigned) [Compound 6] ?
6.6

---

Target: human 5HT transporter (Homo sapiens)
Construct: host or cells: HEK cells
Sequence (P31645 whole entry): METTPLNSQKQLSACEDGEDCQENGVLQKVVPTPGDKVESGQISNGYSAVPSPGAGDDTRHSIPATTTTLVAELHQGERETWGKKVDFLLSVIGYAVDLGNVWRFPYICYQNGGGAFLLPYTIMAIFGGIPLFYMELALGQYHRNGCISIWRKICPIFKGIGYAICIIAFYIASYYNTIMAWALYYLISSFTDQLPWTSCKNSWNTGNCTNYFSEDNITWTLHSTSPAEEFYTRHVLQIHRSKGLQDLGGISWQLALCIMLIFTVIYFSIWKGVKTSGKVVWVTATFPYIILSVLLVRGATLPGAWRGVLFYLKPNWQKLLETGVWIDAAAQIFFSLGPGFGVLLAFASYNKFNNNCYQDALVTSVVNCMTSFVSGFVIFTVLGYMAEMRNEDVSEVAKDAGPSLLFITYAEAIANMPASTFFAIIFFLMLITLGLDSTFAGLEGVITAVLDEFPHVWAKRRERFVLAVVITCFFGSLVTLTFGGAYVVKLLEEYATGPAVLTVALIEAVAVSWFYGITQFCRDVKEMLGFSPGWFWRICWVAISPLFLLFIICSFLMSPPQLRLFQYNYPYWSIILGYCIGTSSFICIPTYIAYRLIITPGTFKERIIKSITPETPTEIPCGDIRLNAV
Test: Binding experiment for 5-HT transporter ([3H]Paroxetine)
Details: transfected HEK cell membranes, [3H]Paroxetine
Protocol: The interaction of the compounds of Formula (I) with dopamine-receptors, h5HT-transporter and h5HT1A receptor was assessed in in vitro radioligand binding experiments. […] When equilibrium of binding is reached, the receptor bound radioactivity is separated from the non-bound radioactivity, and the receptor- or transporter-bound activity is counted. The interaction of the test compounds with the receptor is assessed in competition binding experiments. […]
Assignment: determine reported pIC50 5HTT for the given compounds.
Answers are plain numbers.

compound="COc1cc2c(cc1OC)C1=NOC(CN3CC=C(c4c[nH]c5ccc([N+](=O)[O-])cc45)CC3)C1CO2 (racemic)" outcome_measure="pIC50 5HTT" measured_result=7.1
compound="COc1cc2c(cc1OC)C1=NOC(CN3CC=C(c4c[nH]c5ccccc45)CC3)C1CO2 (single isomer, unassigned) [Compound 14]" outcome_measure="pIC50 5HTT" measured_result=7.5
compound="COc1cc2c(cc1OC)C1=NOC(CN3CC=C(c4c[nH]c5ccc(Cl)cc45)CC3)C1CO2 (racemic)" outcome_measure="pIC50 5HTT" measured_result=7.1

Below is a list of compounds. For each, state its recorded pIC50 5HTT.
1. COc1cc2c(cc1OC)C1=NOC(CN3CCC(c4c[nH]c5ccccc45)CC3)C1CO2.O=C(O)C(=O)O (single isomer, unassigned)
2. Fc1ccc2c(C3CCN(CC4ON=C5c6ccc(NCCN7CCCC7)cc6OCC54)CC3)c[nH]c2c1 (racemic)
3. COc1cc2c(cc1OC)C1=NOC(CN3CCC(c4c[nH]c5ccc(F)cc45)CC3)C1CO2 (single isomer, unassigned) [Compound 11]

6.9
8.2
6.9

// each listed compound needs a value for pIC50 5HTT
1. COc1cc2c(cc1OC)C1=NOC(CN3CCC(c4c[nH]c5cc(F)ccc45)CC3)C1CO2 (single isomer, unassigned) [Compound 35]
2. COc1cc2c(cc1OC)C1=NOC(CN3CCC(c4c[nH]c5ccc(N)cc45)CC3)C1CO2 (racemic)
3. COCC(=O)OCCOc1cc2c(cc1OC)C1=NOC(CN3CCC(c4c[nH]c5ccc(F)cc45)CC3)C1CO2 (racemic)
4. COc1cc2c(cc1OC)C1=NOC(CN3CC=C(c4c[nH]c5ccc(F)cc45)CC3)C1CO2 (single isomer, unassigned) [Compound 12]
5. COc1cc2c(cc1OC)C1=NOC(CN3CC=C(c4c[nH]c5ccc(C#N)cc45)CC3)C1CO2 (racemic)

[7.3, 5.4, 6.9, 8.0, 7.4]

Bench note: what pIC50 5HTT did COc1cc2c(cc1OC)C1=NOC(CN3CCC(c4c[nH]c5ccc(F)cc45)CC3)C1CO2 (racemic) [Compound 2] show?
7.4
